Sourced from PubChem BioAssay (NCI)

# System: EKVX NSCLC
# ASSAY_PROCEDURE: NCI-60 one-dose screen, 48 h (100 = growth as untreated, 0 = no growth, -100 = all killed)
# MEASUREMENT_PARAMETERS: 10 µM unless noted
# Method: Growth inhibition of the EKVX human Non-Small Cell Lung tumor cell line is measured as a screen for anti-cancer activity. Cells are grown in 96 well plates and exposed to the test compound for 48 hours. Compounds are tested at a single concentration, which is 10^-5 M for most compounds. The reported endpoint is percent growth (GI% or GIPRCNT), where numbers from 0 - 100% represent growth inhibition, and numbers from -100% - 0 represent cell death. […]
Compounds without any hit were thinned out: in the full panel of roughly 83,000, 20% have a hit.
Entries whose growth is below 90% take 1; entries at or above 90% take 0.

# COMPOUND, STUDY_TARGET, CLASS_ASSIGNMENT
rows = [
    ("O=c1c2cc(Br)cc(Br)c2nc(-c2ccc(Cl)cc2)n1/N=C\\c1ccccc1F", "EKVX NSCLC", 1),
    ("CCOC(=O)c1cnc(SCC)nc1SC#N", "EKVX NSCLC", 0),
    ("COC(=O)CSc1ccc(Cl)cc1", "EKVX NSCLC", 0),
    ("C=C1C(=O)O[C@H]2[C@H]1CC/C(COC(=O)NCc1cccc(OC)c1)=C\\CC[C@@]1(C)O[C@@H]21", "EKVX NSCLC", 1),
    ("CC(C)(C)c1nn(-c2ccccc2)c2c1C(=O)CSC(c1ccc3c(c1)OCO3)N2 (stereo not drawn)", "EKVX NSCLC", 1),
    ("COc1ncnc2[nH]cc(CN3CCN(c4ccc(F)cc4)CC3)c12", "EKVX NSCLC", 0),
    ("O=C(/C=C/c1ccco1)c1ccccc1O", "EKVX NSCLC", 0),
    ("O=S1(=O)NCCCN1CCNc1nccc(-c2c(-c3cccc(O)c3)nc3sccn23)n1", "EKVX NSCLC", 0),
    ("CC(C)(C)[Si](C)(C)OC1[C@@H](O[Si](C)(C)C(C)(C)C)[C@@H](CNC(=O)NC(=O)NC(=O)CCl)O[C@H]1n1cnc2c(NC(=O)Nc3ccccc3)ncnc21 (stereo partly drawn)", "EKVX NSCLC", 1),
    ("CN(C)c1nc(-c2ccco2)n2nc(-c3ccc(Cl)cc3)cc2n1", "EKVX NSCLC", 1),
    ("CCN(CC)CCCC(C)Nc1c(-c2ccccc2)cnc2cc(Cl)ccc12 (stereo not drawn)", "EKVX NSCLC", 1),
]

* * *

# Test system: HCT-15 colon
# ASSAY_PROCEDURE: NCI-60 one-dose screen, 48 h (100 = growth as untreated, 0 = no growth, -100 = all killed)
# MEASUREMENT_PARAMETERS: 10 µM unless noted
About 83,000 compounds went through this panel and 20% of them were active in at least one assay; those are over-represented in the sample as a whole.
Recorded growth, one value per entry.
ASSAY_READOUT: growth (%)

# COMPOUND, STUDY_TARGET, MEAS_VALUE
records = [
    ("O=C(CC(=O)C(F)(F)C(F)(F)C(F)(F)F)c1cc2ccccc2o1", "HCT-15 colon", 108),
    ("CC(=O)OC[C@H]1O[C@@H](n2c(=O)cc(N)[nH]c2=O)C(OC(C)=O)[C@@H]1OC(C)=O (stereo partly specified)", "HCT-15 colon", 99.7),
    ("O=C1/C(=C/c2cc(F)cc(F)c2)Cc2cc(F)cc(F)c21", "HCT-15 colon", 95.4),
    ("COc1cc(CN(c2ccc(C)cc2)C2OC(=O)c3ccccc32)cc(OC)c1OC (stereo unspecified)", "HCT-15 colon", 6.19),
    ("CC(C)(C)[Si](C)(C)OC1[C@@H](CNC(N)=O)O[C@@H](n2cnc3c(NC(=O)Nc4ccccc4)ncnc32)[C@H]1O[Si](C)(C)C(C)(C)C (stereo partly specified)", "HCT-15 colon", 48.3),
    ("FC(F)(F)c1nn[nH]n1", "HCT-15 colon", 105),
    ("CCOC(=O)C(CCCCC(NC(C)=O)(C(=O)OCC)C(=O)OCC)(NC(C)=O)C(=O)OCC", "HCT-15 colon", 106),
    ("CCn1c(Cc2ccccc2Nc2c(Cl)cccc2Cl)nnc1SCC(=O)Nc1ccccc1C(F)(F)F", "HCT-15 colon", 84.6),
    ("CCC1=CC2CN(C1)Cc1c([nH]c3ccccc13)[C@@](C(=O)OC)(c1cc3c(cc1OC)N(C)[C@H]1[C@@](O)(C(=O)OC)[C@H](OC(C)=O)[C@]4(CC)C=CCN5CC[C@]31[C@@H]54)C2 (stereo partly specified)", "HCT-15 colon", 21.5),
    ("O=S(=O)(Nc1ccc2ccccc2c1)N1CCCCC1", "HCT-15 colon", 40.6),
    ("COc1cc(NC(=O)CSc2nc3ccc(Cl)cc3c(=O)n2-c2ccccc2)cc(OC)c1OC", "HCT-15 colon", 99.6),
]

* * *

# Tested on: PC-3 prostate
# ASSAY_PROCEDURE: NCI-60 one-dose screen, 48 h (100 = growth as untreated, 0 = no growth, -100 = all killed)
# MEASUREMENT_PARAMETERS: 10 µM unless noted
# Procedure: Growth inhibition of the PC-3 human tumor cell line is measured as a screen for anti-cancer activity. Cells are grown in 96 well plates and exposed to the test compound for 48 hours. Compounds are tested at a single concentration, which is 10^-5 M for most compounds. The reported endpoint is percent growth (GI% or GIPRCNT), where numbers from 0 - 100% represent growth inhibition, and numbers from -100% - 0 represent cell death. For example, a value of 40 represents 60% growth inhibition. […]
Compounds without any hit were thinned out: in the full panel of roughly 83,000, 20% have a hit.
Binary call on growth: 1.0 from 70% upward, 0.0 beneath that.

# COMPOUND, CLASS_ASSIGNMENT
measured = [
    ("O=C1CCCN1C(O)CCN(Cc1ccccc1)Cc1ccc(Cl)cc1 (configuration not stated)", 1.0),
    ("O=C(CC(=O)c1cccc(Cl)c1)c1cccc(Cl)c1", 0.0),
    ("CN1C(=O)C(C2=NNC(c3ccccc3C(=O)O)C2)C(=O)N(C)C1=O (configuration not stated)", 1.0),
    ("COc1ccc(-c2cc(-c3ccc(OC)cc3)c3sc(=O)[nH]c3n2)cc1", 1.0),
    ("COc1cc(-c2nc(-c3ccc(-c4nc5ccc(F)cc5[nH]4)cc3)no2)cc(OC)c1OC", 0.0),
    ("CC(C)(c1ccccc1)c1cc(O)c(C(C)(C)c2ccccc2)cc1O", 0.0),
    ("COc1cc(Nc2ncccc2/C=C/C(=O)c2cc(OC)c(OC)c(OC)c2)cc(OC)c1OC", 1.0),
    ("Cc1ccccc1NC(=O)c1sc2nc3c(cc2c1N)C(=O)CCC3", 0.0),
    ("C/C(=N\\NC(=O)CSc1nc2ccccc2c(=O)n1CCc1ccc(S(N)(=O)=O)cc1)c1ccc(Br)cc1", 0.0),
    ("c1ccc2c(N=NSc3ncnc4nc[nH]c34)c3ccccc3nc2c1", 0.0),
    ("COc1nccc2c(Sc3ccccc3)nc(N)nc12", 1.0),
]

* * *

// growth lookup, one value per entry
# Tested on: OVCAR-4 ovarian
# ASSAY_PROCEDURE: NCI-60 one-dose screen, 48 h (100 = growth as untreated, 0 = no growth, -100 = all killed)
# MEASUREMENT_PARAMETERS: 10 µM unless noted
This is part of a sample that, as a whole, favours compounds with a hit. Of some 83,000 tested, about 20% had one in any assay. The source made the active and inactive calls. How the source made its calls: active means growth percent below 10; inactive means the rest.
ASSAY_READOUT: growth

# MOLECULE, MEAS_VALUE
rows = [
    ("CN(C)c1ccc(C2(Cl)c3ccccc3N(C)c3ccccc32)cc1", "59.5% (inactive)"),
    ("CN1C(=O)N(C)C2C1NN=c1s/c(=C\\c3ccc(Br)cc3)c(=O)n12 (stereo not drawn)", "61.6% (inactive)"),
    ("Fc1cc(-c2cnc3nonc3n2)c(Cl)cc1Cl", "59.6% (inactive)"),
]

* * *

# System: LOX IMVI melanoma
# ASSAY_PROCEDURE: NCI-60 one-dose screen, 48 h (100 = growth as untreated, 0 = no growth, -100 = all killed)
# MEASUREMENT_PARAMETERS: 10 µM unless noted
Compounds without any hit were thinned out: in the full panel of roughly 83,000, 20% have a hit.
# growth per record follows
ASSAY_READOUT: growth (%)

# COMPOUND, MEAS_VALUE
measured = [
    ("O=c1oc2ccccc2cc1-c1cc(-c2ccc(-c3cc(-c4cc5ccccc5oc4=O)nc(-c4cc5ccccc5oc4=O)c3)cc2)cc(-c2cc3ccccc3oc2=O)n1", 102),
    ("COc1ccc(C2=NNC(c3ccc(Oc4nc5c(c(=O)n(C)c(=O)n5C)n4C)c(OC)c3)C2)cc1 (centres undefined)", 91.4),
    ("O=C(Nc1ccc(Cl)cc1)c1cc(-c2ccc(Cl)cc2)c2sc(=O)[nH]c2n1", 13.4),
    ("CCOC(=O)C1OC2(CCCC2)OC1C(=O)OCC (centres undefined)", 102),
]
